# Study System: porcine pancreatic lipase (Sus scrofa, UniProt P00591)
Property: IC50

COc1ccc(-c2coc3cc(O)ccc3c2=O)cc1; > 1860 µM
O=c1c(-c2ccc(O)cc2)coc2cc(O)cc(O)c12; > 2960 µM

Switching to the query record.
Request: Return IC50 for the following compound: Oc1cc(O)c2c(c1)O[C@H](c1ccc(O)c(O)c1)[C@H](O)C2 [Epicatechin]
Response: > 20700 µM

====

# Study System: porcine pancreatic lipase (Sus scrofa)
# Sequence (P00591 1-450): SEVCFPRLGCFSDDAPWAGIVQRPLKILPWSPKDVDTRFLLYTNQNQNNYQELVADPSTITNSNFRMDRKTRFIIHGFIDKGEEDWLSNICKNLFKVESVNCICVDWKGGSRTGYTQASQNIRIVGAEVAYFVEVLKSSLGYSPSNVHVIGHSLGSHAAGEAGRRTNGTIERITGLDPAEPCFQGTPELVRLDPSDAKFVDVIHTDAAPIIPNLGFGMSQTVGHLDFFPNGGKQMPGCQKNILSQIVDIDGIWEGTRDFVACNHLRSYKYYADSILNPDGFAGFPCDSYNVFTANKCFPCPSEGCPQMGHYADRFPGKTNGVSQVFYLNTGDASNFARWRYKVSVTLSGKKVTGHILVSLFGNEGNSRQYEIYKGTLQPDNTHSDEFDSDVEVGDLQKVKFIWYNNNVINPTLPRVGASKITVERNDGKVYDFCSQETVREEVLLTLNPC
pIC50: −log10 of the molar value.
A collection of compounds and their measured pIC50

COc1ccc(-c2coc3cc(O[C@@H]4O[C@H](CO)[C@@H](O)[C@H](O)[C@H]4O)ccc3c2=O)cc1 [Ononin]; < 2.94
O=c1c(-c2ccc(O)cc2)coc2cc(O[C@@H]3O[C@H](CO)[C@@H](O)[C@H](O)[C@H]3O)ccc12 [Daidzin]; < 2.94

Request: Specify reported pIC50 for the compound shown: O=c1cc(-c2ccccc2)oc2cc(O)cc(O)c12 [Chrysin]
Response: < 3.23

Request: In one line, give reported pIC50 of the entry Oc1cc(O)c2c(c1)O[C@H](c1cc(O)c(O)c(O)c1)[C@H](O)C2 [Epigallocatechin] .
Response: < 1.31

Request: # return recorded pIC50 for entry O=c1c(O)c(-c2ccc(O)cc2)oc2cc(O)cc(O)c12 [Kaempferol]
Response: < 3.01
